Taken from patent US20030064954A1.

Field: cytotoxicity as a percentage of survived cells. Provide a value for each of the molecules that follow.
test system: D 407 cells; test: Cytotoxicity of amphiphile/DNA complexes, percentage of survived cells; assay type: cell-based, human; set-up: concentration or dose not given beside the values; conditions: amphiphile/DNA +/− charge ratio 0.5

Q: Provide cytotoxicity as a percentage of survived cells value for the following molecule: "CCCCCCCCCCCCCCOC(=O)C1=C(C)NC(C)=C(C(=O)OCCCCCCCCCCCCCC)C1c1ccc[n+](C)c1.I.[I-]"
A: 98,6%

Q: Could you please provide reported cytotoxicity as a percentage of survived cells for "CCCCCCCCCCCCCCCCOC(=O)C1=C(C[n+]2ccccc2)NC(C[n+]2ccccc2)=C(C(=O)OCCCCCCCCCCCCCCCC)C1c1ccccc1.[Br-].[Br-]" ? Thanks!
A: 97,52%

Q: Return cytotoxicity as a percentage of survived cells for the following molecule: "CCCCCCCCCCCCCCCC(=O)OCCOC(=O)C1=C(C)NC(C)=C(C(=O)OCCOC(=O)CCCCCCCCCCCCCCC)C1c1ccc[n+](C)c1.I.[I-]"
A: 90,43%

----------
test system: CVI-P cells; experiment: Cytotoxicity of amphiphile/DNA complexes, percentage of survived cells; settings: amphiphile/DNA +/− charge ratio 4
Quantity: cytotoxicity as a percentage of survived cells

Q: Provide measured cytotoxicity as a percentage of survived cells value, entry: CCCCCCCC/C=C\CCCCCCCC(=O)OCC(C[N+](C)(C)C)OC(=O)CCCCCCC/C=C\CCCCCCCC.[Cl-] (stereo not drawn) [DOTAP, reference compound]
A: 97,89%

Q: # return recorded cytotoxicity as a percentage of survived cells for input CCCCCCCCCCOC(=O)C1=C(C[n+]2ccccc2)NC(C[n+]2ccccc2)=C(C(=O)OCCCCCCCCCC)C1c1ccccc1.[Br-].[Br-] [XXII]
A: 78,2%

Q: Read the entry CCCCCCCCCCOC(=O)C1=C(C[N+](C)(C)CCCCCCCC)NC(C[N+](C)(C)CCCCCCCC)=C(C(=O)OCCCCCCCCCC)C1c1ccccc1.[Br-].[Br-] [XXVII] and write its reported cytotoxicity as a percentage of survived cells.
A: 24,62%

----------
system: D 407 cells; experiment: Cytotoxicity of amphiphile/DNA complexes, percentage of survived cells; format: cell-based, human; design: concentration or dose not given beside the values; conditions: amphiphile/DNA +/− charge ratio 0.5
Would you kindly list cytotoxicity as a percentage of survived cells for each of these compounds?

Q: Please give measured cytotoxicity as a percentage of survived cells of the following entry: CCCCCCCCCCCCOC(=O)C1=C(C)NC(C)=C(C(=O)OCCCCCCCCCCCC)C1c1ccc[n+](C)c1.I.[I-] [V]
A: 85,27%

Q: Return value of cytotoxicity as a percentage of survived cells for input CCCCCCCC/C=C\CCCCCCCC(=O)OCC(C[N+](C)(C)C)OC(=O)CCCCCCC/C=C\CCCCCCCC.[Cl-] (centres unmarked) [DOTAP, reference compound] , no commentary.
A: 85,08%

Q: Give the reported cytotoxicity as a percentage of survived cells for this compound. CCCCCCCCCCCCCCCCOC(=O)C1=C(C)NC(C)=C(C(=O)OCCCCCCCCCCCCCCCC)C1c1ccc[n+](C)c1.I.[I-] [VII]
A: 95,82%

Q: Output cytotoxicity as a percentage of survived cells of CCCCCCCCCCCCOC(=O)C1=C(C[n+]2ccccc2)NC(C[n+]2ccccc2)=C(C(=O)OCCCCCCCCCCCC)C1c1ccccc1.[Br-].[Br-] [XXIII]
A: 93,67%

Q: Output measured cytotoxicity as a percentage of survived cells for this item: CCCCCCCCCCCCCCOC(=O)C1=C(C[n+]2ccccc2)NC(C[n+]2ccccc2)=C(C(=O)OCCCCCCCCCCCCCC)C1c1ccccc1.[Br-].[Br-] [XXIV]
A: 97,59%
